# procedureSummary: recombinant UMI read abundance after kanamycin selection (control-corrected) (log10(CPM+1)); higher = more efficient recombination; extreme values may be limits of the assay; sequences stand for … in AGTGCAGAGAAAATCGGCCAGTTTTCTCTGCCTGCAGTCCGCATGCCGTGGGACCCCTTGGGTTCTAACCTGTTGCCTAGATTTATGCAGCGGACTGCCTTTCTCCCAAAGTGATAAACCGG…AGGTTGGTTTCACT; site = the 11-nt donor;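 note: IS621 bridge recombinase in Escherichia coli cells against a fixed T5 target plasmid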
readoutType: recombinant UMI read abundance (log10)

                             monomersequence  readoutnumber
 0  CCCGGCCCATGGACCGGTTTTCCCGGTAATCCGTATTTGCA (site CCCGGACCTTG)        0.00734
 1  CGAGGATCATGGACCGGTTTTCCCGGTAATCCGTATTTGGG (site CGAGGACCTCC)        0.00347
 2  TACACCGCATGGACCGGTTTTCCCGGTAATCCGTATTTGTA (site TACACCGCTTA)           1.36
 3  ATATTGTCATGGACCGGTTTTCCCGGTAATCCGTATTTGTC (site ATATTGTCTGA)           3.25
 4  TGTAAAGCATGGACCGGTTTTCCCGGTAATCCGTATTTGAC (site TGTAAAGCTGT)         0.0139
 5  GCTACTGCATGGACCGGTTTTCCCGGTAATCCGTATTTGCC (site GCTACTGCTCG)              0
 6  ATAGACCCATGGACCGGTTTTCCCGGTAATCCGTATTTGAT (site ATAGACCCTAT)           1.21
 7  TTAGGTACATGGACCGGTTTTCCCGGTAATCCGTATTTGAC (site ATAGGTACTGT)         0.0067
 8  AGTAGAACATGGACCGGTTTTCCCGGTAATCCGTATTTGAG (site AGTAGAACTCT)           1.24
 9  CCAGGTCCATGGACCGGTTTTCCCGGTAATCCGTATTTGCA (site CCTGGTCCTTG)              0
10  TTCTACACATGGACCGGTTTTCCCGGTAATCCGTATTTGCT (site TTCTACACTAG)           1.16
11  CGGAATCCATGGACCGGTTTTCCCGGTAATCCGTATTTGTT (site CGGAACCCTAC)        0.00563
